experiment: Inhibition of flavin-dependent thymidylate synthetase (unknown origin); design: species or system Bacteria
QUANTITY KIND: pKi
Give bare numbers, as −log10 of the molar value.

## Task Name the recorded pKi of the item O=C1c2ccccc2C(=O)C(c2ccco2)C1O (stereo unspecified) in your answer.
## Result 7.55
